Measured Papp, listed per entry for reference.
Test: PAMPA (Parallel Artificial Membrane Permeability Assay)
Format: physicochemical
Set-up: dose or concentration left out as unconfirmed
Details: pH 7.4
OBSERVABLE: Papp (×10⁻⁶ cm/s)

1. CC[C@@]1(O)C(=O)OCc2c1cc1n(c2=O)Cc2c-1nc1cc(F)c(C)c3c1c2[C@H](CCCO)CC3 (single isomer, unassigned) : 32.9
2. CC[C@@]1(O)C(=O)OCc2c1cc1n(c2=O)Cc2c-1nc1cc(F)c(C)c3c1c2[C@](C)(N1CC[C@@H](O)C1)CC3 (single isomer, unassigned) : 6
3. CC[C@@]1(O)C(=O)OCc2c1cc1n(c2=O)Cc2c-1nc1cc(F)c(C)c3c1c2[C@@H](CCO)CC3 (single isomer, unassigned) : 33.4
4. CC[C@@]1(O)C(=O)OCc2c1cc1n(c2=O)Cc2c-1nc1cc(F)c(C)c3c1c2[C@](C)(COCCO)CC3 (single isomer, unassigned) : 25.5
5. CC[C@@]1(O)C(=O)OCc2c1cc1n(c2=O)Cc2c-1nc1cc(F)c(C)c3c1c2[C@](C)(CO)CC3 (single isomer, unassigned) : 8.5
6. CC[C@@]1(O)C(=O)OCc2c1cc1n(c2=O)Cc2c-1nc1cc(F)c(C)c3c1c2[C@](C)(N1CC[C@H](O)C1)CC3 (single isomer, unassigned) : 6.6

Cited source: patent US20260021193A1
